Where do these numbers come from? They come from patent US9845310B2.

Record form. Attribute: EC50. Fill in for each entry.
# Tested System: UniProt:P35414
# Assay Protocol: [35S]GTPγS binding assay on membranes from CHO cells stably expressing human APJ receptor
# Type: biochemical
# Condition Description: read-out: Activity hAPJ SPA EC50 IP
Answers are plain numbers, in nM.

Examples with their reported EC50 follow.
COc1cccc(OC)c1-n1c(NS(=O)(=O)[C@@H](C)[C@@H](OC(C)C)c2ncc(C)cn2)nnc1-c1cccnc1 (stereo in doubt) [Example 625.0]: 110
COc1cccc(-c2nnc(NS(=O)(=O)[C@@H]3CCCO[C@@H]3c3ncc(C)cn3)n2-c2c(OC)cccc2OC)n1 (single isomer, unassigned) [Example 657.0]: 14

Query: Answer with the recorded EC50 for the molecule listed here: COc1cccc(OC)c1-n1c(NS(=O)(=O)[C@@H]2CCCO[C@@H]2c2ncc(C)cn2)nnc1-c1cncc(C)c1 (single isomer, unassigned) [Example 646.0]
Response: 53

====

# Tested System: APJ (Homo sapiens (Human), UniProt P35414)
# Sequence (P35414 whole entry): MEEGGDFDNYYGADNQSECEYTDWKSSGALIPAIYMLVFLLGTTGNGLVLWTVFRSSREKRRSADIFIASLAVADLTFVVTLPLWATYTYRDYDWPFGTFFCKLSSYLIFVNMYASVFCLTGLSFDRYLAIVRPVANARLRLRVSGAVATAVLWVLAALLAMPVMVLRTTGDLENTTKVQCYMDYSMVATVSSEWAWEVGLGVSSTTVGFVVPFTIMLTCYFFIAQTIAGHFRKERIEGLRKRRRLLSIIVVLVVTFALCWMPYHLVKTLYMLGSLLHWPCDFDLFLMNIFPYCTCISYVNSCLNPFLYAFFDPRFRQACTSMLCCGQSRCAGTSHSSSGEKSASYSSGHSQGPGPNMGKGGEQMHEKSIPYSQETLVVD
# Assay Protocol: [35S]GTPγS binding assay on membranes from CHO cells stably expressing human APJ receptor
# Format: biochemical
# Condition Description: read-out: Activity hAPJ SPA EC50 IP
Quantity Kind: pEC50
Numbers only, as −log10 of the molar value.

COc1cccc(OC)c1-n1c(NS(=O)(=O)[C@@H](C)[C@H](OC)c2ncc(C)o2)nnc1-c1cncc(C)c1 (single isomer, unassigned) [Example 633.0]: 8.16
COc1cccc(-c2nnc(NS(=O)(=O)[C@H](C)[C@@H](O)c3cn(C)cn3)n2-c2c(OC)cccc2OC)n1 (mixture of isomers) [Example 258.0]: 8.70
COc1cccc(OC)c1-n1c(NS(=O)(=O)[C@@H](C)Cc2ncc(F)cn2)nnc1-c1cncc(Cl)c1 (mixture of isomers) [Example 219.0]: 8.07
COc1cccc(OC)c1-n1c(NS(=O)(=O)[C@@H](C)[C@H](C)c2ncc(F)c([C@@H]3COCCO3)n2)nnc1-c1cccc(OCC(O)(C(F)(F)F)C(F)(F)F)n1 (single isomer, unassigned) [Example 640.0]: 6.48
COc1cccc(OC)c1-n1c(NS(=O)(=O)[C@@H](C)Cc2ncc(F)cn2)nnc1-c1cnccc1C (mixture of isomers) [Example 216.0]: 6.24

Give one value of pEC50 per listed compound.
1. COc1cccc(-c2nnc(NS(=O)(=O)C[C@@H](O)c3cn4ccccc4n3)n2-c2c(OC)cccc2OC)n1 (mixture of isomers) [Example 257.0]
2. COc1cccc(-c2nnc(NS(=O)(=O)[C@H](C)[C@H](OC(C)C)c3cnc(C)cn3)n2-c2c(OC)cccc2OC)n1 (single isomer, unassigned) [Example 825.0]

Response:
9.14
9.82

Record pEC50 per entry; entries follow.
1. COc1cccc(OC)c1-n1c(NS(=O)(=O)[C@@H]2CCCO[C@@H]2c2ncc(C)cn2)nnc1-c1cncc(C)c1 (single isomer, unassigned) [Example 645.0]
2. COc1cccc(OC)c1-n1c(NS(=O)(=O)[C@@H](C)[C@H](O)c2ccc(C#N)cc2)nnc1-c1cncc(C)c1 (single isomer, unassigned) [Example 249.0]
3. COc1cccc(-c2nnc(NS(=O)(=O)[C@H](C)[C@H](O)c3cn(C)cn3)n2-c2c(OC)cccc2OC)n1 (mixture of isomers) [Example 259.0]

Response:
1: 7.22; 2: 8.96; 3: 7.96
